- Tested on: SARS-CoV-2 spike (S) protein trimer, WA01/2020 strain (SARS-CoV-2, WA01/2020 strain, UniProt P0DTC2 16-1213)
- Test summary: dose-response ELISA on coated antigen
pEC50: −log10 of the molar value.
Known pEC50 of a selection of binders
Measured endpoint: pEC50

- antibody 2598 (antibody, V domains shown) VH: QVQLQESGPGLVKPSGTLSLTCVVSGGSISSSNWWSWVRQPPGKGLEWIGETFHSGSFNYNPSLKSRVTISVDKSKNQFSLKLSSVTAADTAIYYCATTRVGYEGHFYYYGMDVWGQGTTVTVSS VL: DIQMTQSPSSVSASVGDRVTITCRASQGISSWLAWYQQKPGKAPKLLIYAASSLQSGVPSRFSGSGSGTDFTLTISSLQPEDFATYYCQQANRFPWTFGQGTKVEIK: 10.37
- antibody 2793 (antibody, V domains shown) VH: QVQLVQSGAEVKKPGASVKVSCKVSGFTLPELSIHWVRQAPGKGLEWMGGFDPEDAKTIYAQKFQGRVTMTEDTSTDIAYMELNSLRSDDTAVYYCATGSPFGVVGNWLDPWGQGTLVTVSS VL: QSALTQPASVSGSPGQSITISCTGTSSDVGDFSYVSWYQQHPGKAPKLMIYEVTKRPSGVSNRFSGSKSGNTASLTISGLQTEDEADYYCTSYTSSRLVLFGGGTKLTVL: 10.17
- antibody 1238 (antibody, V domains shown) VH: QVQLVQSGSELKKPGASVKVSCKASGYTFTNYGMNWVRQAPGQGLEWMGWINTNTGNPTNAQGFTGRFVFSLDTSVSTAYLQINSLKGEDTAVYYCARVADTGEMDVWGQGTTVTVSS VL: SYELTQPPSVSVSPGQTARITCSGDALPKQYAYWYQQKPGQAPVLVIYKDSERPSGIPERFSGSSSGTTVTLTISGVQAEDEADYYCQSADSSGSYNWVFGGGTKLTIL: 10.16
- antibody 2854 (antibody, V domains shown) VH: QVQLVQSGAEVKKPGSSVKVSCKASGGTFSSYAISWVRQAPGQGLEWMGGIIPIFHTANYAQKFQGRVTITADESTSTTYVELSSLRSEDTAMYYCATLPITIFGEEYSFDNWGQGTLVTVSS VL: DVVMTQSPLSLPVTLGQPASISCRSSQSLVHSDGNTYLSWFQQRPGQSPRRLIYKVSDRDSGVPDRFSGSGSGTDFTLKISRVEAEDVGIYYCMQGTHWPPLTFGGGTKVEIK: 9.82
- antibody 2788 (antibody, V domains shown) VH: QVQLVQSGAEVKKPGASVKVSCKVSGYTLIELSMHWVRQAPGKGLEWMGGFDPEGAETIYAQKFQGRVTMTEDTSTDTAYMELSSLRSDDTAVYYCATGPAVFAANWFDPWGQGTLVTVSS VL: QSALTQPPSASGSPGQSVTISCTGTSSDIGNYNNVSWYQQHPGKAPKLMIYDVIKRPSGVPDRFSGSKSGNTASLTVSGLQAEDEADYYCSSYAGKSYVFGTGTKVTVL: 10.68
- antibody 2019 (antibody, V domains shown) VH: QVQLVESGGGVVQPGGSLSLSCAASGLSFSSYGMHWVRQAPGKGLEWVAFIRYDVSNKYYADSVKGRFTISRDNSKNTLYLQMNSLRVEDTAVYYCATWAPLDDGMDVWGQGTTVTVSS VL: SYELTQPPSVSVSPGQTARITCSGDALPKQYAYWYQQKPGQAPVLVIYKDTERPSGIPERFSGSSSGTTVTLTISGVQAEDEADYYCQSGDSSGTFYVVFGGGTKLTVL: 10.62

Where do the numbers come from? From patent US20230382979A1.
